Entry source: BindingDB's records for doi:10.7270/Q2ZC817P

- Tested system: Sphingosine 1-phosphate receptor 1 (Homo sapiens)
- Experiment: potentiators of S1P1 agonist response, dose response, cell-based, potentiator mode, 60K MLSMR set (AID 466)
Measured parameter: EC50 (µM)
Please state the figure in µM; there is no need to write the unit.

Example results:
O=C(NCc1ccco1)C1CCN(C(=O)c2cc3sccc3n2Cc2ccc(Cl)cc2)CC1 :: 9.88
COc1ccc(CCNc2ncnc3c2oc2ccccc23)cc1OC :: 0.601
CCc1c(C)nc2ncnn2c1NCCc1ccc(OC)cc1 :: 9.1
O=C(Nc1ccc(OC(F)F)c(Cl)c1)Nc1ccc2c(c1)OCO2 :: 8.5
CC1Cc2ccccc2N1c1ncnc2nc[nH]c12 (configuration not stated) :: 7.03

Lookup: Lab note: Sphingosine 1-phosphate receptor 1 (Homo sapiens) assay, enter EC50 for CC(C)c1cc(C(F)(F)F)n2nc(C(=O)Nc3ccc4c(c3)OCO4)cc2n1 here
Found: 2.84

Lookup: Lab note: Sphingosine 1-phosphate receptor 1 (Homo sapiens) assay, enter EC50 for O=C(Nc1nc2c(s1)CCCC2)c1cc2n(n1)C(C(F)(F)F)CC(C1CC1)N2 (configuration not stated) here
Found: 0.908

Lookup: Lab note: Sphingosine 1-phosphate receptor 1 (Homo sapiens) assay, enter EC50 for CCCN(C(=O)c1cccs1)c1nnc(-c2ccncc2)s1 here
Found: 2.96

----------
- Tested system: Sphingosine 1-phosphate receptor 1 (Homo sapiens)
- Experiment: potentiators of S1P1 agonist response, dose response, cell-based, potentiator mode, 60K MLSMR set (AID 466)
- Experimental parameters: inactive by the depositor's call
Measured parameter: pEC50
pEC50 field: float, defined as -log10 of concentration (mol/L).

Example results:
Clc1ccc(CSc2nnc(-c3ccncc3)o2)c(Cl)c1 :: 4.41
Cc1nc2sc(-c3ccccc3)cc2c(=O)n1-n1cccc1 :: 4.75
Oc1c(C(c2ccco2)N2CCN(C(c3ccccc3)c3ccccc3)CC2)sc2ncnn12 (stereo not drawn) :: 4.70

Lookup: Dear colleague, please send me the reported pEC50 for CN(Cc1cccs1)c1ncnc2sccc12 [MLS000056228] when you can.
Found: 4.85

Lookup: Dear colleague, please send me the reported pEC50 for COc1ccc2ncn(-c3ccccc3)c2c1 [6-methoxy-1-phenyl-1H-1,3-benzodiazole] when you can.
Found: 4.63

----------
- Tested system: Sphingosine 1-phosphate receptor 1 (Homo sapiens, UniProt P21453)
- Sequence (P21453 whole entry): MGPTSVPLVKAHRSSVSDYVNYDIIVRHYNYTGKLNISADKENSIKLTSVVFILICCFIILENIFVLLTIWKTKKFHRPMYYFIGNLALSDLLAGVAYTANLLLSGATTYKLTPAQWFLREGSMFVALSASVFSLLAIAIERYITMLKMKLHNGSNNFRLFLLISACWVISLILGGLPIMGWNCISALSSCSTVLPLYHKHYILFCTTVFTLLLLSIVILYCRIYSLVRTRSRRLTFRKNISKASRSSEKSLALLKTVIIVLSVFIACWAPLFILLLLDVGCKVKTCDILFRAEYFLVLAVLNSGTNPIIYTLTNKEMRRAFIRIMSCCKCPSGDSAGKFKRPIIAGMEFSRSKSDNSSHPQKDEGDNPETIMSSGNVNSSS
- Experiment: potentiators of S1P1 agonist response, dose response, cell-based, potentiator mode, 60K MLSMR set (AID 466)
Reported pEC50 values for the following molecules.
pEC50 field: float, defined as -log10 of concentration (mol/L).

Example results:
Cc1cc(C=Nn2cnnc2)c(C)n1-c1ccc(OCc2ccc(F)cc2)cc1 :: 6.30
CCN(C1CCCCC1)S(=O)(=O)c1ccc(S(=O)(=O)NCc2ccncc2)cc1 :: 5.15
CCOc1ccc(C(=O)Nc2ccc(Cl)cn2)cc1Cl :: 5.32
c1ccc(-c2ccc(-c3nc(-c4cccnc4)no3)cc2)cc1 :: 5.72
Cc1cc(C(=O)N2CCN(C(c3ccccc3)c3ccccc3)CC2)on1 :: 5.25

Lookup: Lab note: Sphingosine 1-phosphate receptor 1 (Homo sapiens, UniProt P21453) assay, enter pEC50 for CCc1oc2ccccc2c1C(=O)c1cc(Br)c(O)c(Br)c1 here
Found: 5.29

Lookup: Lab note: Sphingosine 1-phosphate receptor 1 (Homo sapiens, UniProt P21453) assay, enter pEC50 for COc1cc(-c2noc(C3CCCN(S(=O)(=O)c4cccc(Cl)c4)C3)n2)cc(OC)c1OC (stereo unspecified) here
Found: 5.58

Lookup: Lab note: Sphingosine 1-phosphate receptor 1 (Homo sapiens, UniProt P21453) assay, enter pEC50 for CCN(C(=O)C1CCCCC1)c1nnc(-c2cccnc2)s1 here
Found: 5.76

Lookup: Lab note: Sphingosine 1-phosphate receptor 1 (Homo sapiens, UniProt P21453) assay, enter pEC50 for CC(Oc1ccccc1Br)C(=O)N1CCc2ccccc21 (stereo unspecified) [1-[2-(2-bromophenoxy)propanoyl]indoline] here
Found: 5.14

Lookup: Lab note: Sphingosine 1-phosphate receptor 1 (Homo sapiens, UniProt P21453) assay, enter pEC50 for CCOc1ccc(-c2nc(CSCC(=O)N3CCN(c4cccc(OC)c4)CC3)c(C)o2)cc1 here
Found: 5.13

Lookup: Lab note: Sphingosine 1-phosphate receptor 1 (Homo sapiens, UniProt P21453) assay, enter pEC50 for Cc1ccccc1-c1nnc(SCc2ccccc2F)o1 here
Found: 5.90
